Assay: Log Kow
Format: physicochemical
The following compounds are listed with their measured Log Kow values.
valueKind: Log Kow

- compound: "CSCCC(N)CSSCC(Cc1ccsc1)C(=O)NC(C)C(=O)OCC1OC(O)C(O)C(O)C1O.O=C(O)C(F)(F)F (stereo not drawn) [Compound 12h]"
  valueKind: "Log Kow"
  number: "−1.15"
- compound: "CSCCC(N)CSSCC(Cc1ccsc1)C(=O)NC(C)C(=O)OCCS(C)(=O)=O.O=C(O)C(F)(F)F (stereo not drawn) [Compound 12b]"
  valueKind: "Log Kow"
  number: "−0.13"
- compound: "CCOC(=O)OC(C)OC(=O)C(NC(=O)C(CSSCC(N)CCSC)Cc1ccccc1)C(C)O.O=C(O)C(F)(F)F (stereo not drawn) [Compound 12i]"
  valueKind: "Log Kow"
  number: 0.76
- compound: "CSCCC(N)CSSCC(Cc1ccccc1)C(=O)NC(C(=O)OC(COC(C)=O)COC(C)=O)C(C)O.O=C(O)C(F)(F)F (stereo not drawn) [Compound 12j]"
  valueKind: "Log Kow"
  number: 0.44
- compound: "CSCCC(N)CSSCC(Cc1ccsc1)C(=O)NC(C)C(=O)OC(CO)CO.O=C(O)C(F)(F)F (stereo not drawn) [Compound 12g]"
  valueKind: "Log Kow"
  number: "−0.29"
- compound: "CSCCC(N)CSSCC(Cc1ccsc1)C(=O)NC(C)C(=O)OC(COC(C)=O)COC(C)=O.O=C(O)C(F)(F)F (stereo not drawn) [Compound 12f]"
  valueKind: "Log Kow"
  number: 1.31
- compound: "CCOC(=O)OC(C)OC(=O)CNC(=O)C(CSSCC(N)CCSC)Cc1ccccc1.O=C(O)C(F)(F)F (stereo not drawn) [Compound 12k]"
  valueKind: "Log Kow"
  number: 1.39
- compound: "CSCCC(N)CSSCC(Cc1ccsc1)C(=O)NC(C)C(=O)OCC(COC(C)=O)OC(C)=O.O=C(O)C(F)(F)F (stereo not drawn) [Compound 12a]"
  valueKind: "Log Kow"
  number: 1.31
- compound: "CCOC(=O)OC(C)OC(=O)C(C)NC(=O)C(CSSCC(N)CCSC)Cc1ccsc1.O=C(O)C(F)(F)F (stereo not drawn) [Compound 12c]"
  valueKind: "Log Kow"
  number: 1.63
